System: L1210 leukemia ip in BDF1 mice, survival T/C
Assay: NCI In Vivo Anticancer Drug Screen. Data for tumor model L1210 Leukemia (intraperitoneal) in B6D2F1 (BDF1) mice
Details: endpoint: mean survival time; dose: 25.0 mg/kg/injection; schedule: Q04DX003 (ip); vehicle: Klucel (hydroxypropylcellulose) (HPC); higher = longer survival
Inconclusive results and toxic doses are left out.
What T/C was measured for each of the following?

Please respond with reported T/C (system L1210 leukemia ip in BDF1 mice, survival T/C) for Cc1cc(=O)[nH]c(N2C(=O)c3ccccc3C2=O)n1 .
99 % of control

Please respond with reported T/C (system L1210 leukemia ip in BDF1 mice, survival T/C) for CC1(C)C/C(=N/O)C/C(=N\O)C1 .
95 % of control

Please respond with reported T/C (system L1210 leukemia ip in BDF1 mice, survival T/C) for CC(=O)Nc1ccc(CCCCc2cccc(C(=N)N)c2)cc1 .
100 % of control

Please respond with reported T/C (system L1210 leukemia ip in BDF1 mice, survival T/C) for CC(O)C#CC(C)O (configuration not stated) .
96 % of control

Please respond with reported T/C (system L1210 leukemia ip in BDF1 mice, survival T/C) for NC1CCC(CC23CC4CC(CC(C4)C2)C3)CC1 (configuration not stated) .
110 % of control

Please respond with reported T/C (system L1210 leukemia ip in BDF1 mice, survival T/C) for CNC(=O)OCC1=CC(=O)C(OC)=CC1=O .
103 % of control

Please respond with reported T/C (system L1210 leukemia ip in BDF1 mice, survival T/C) for C[n+]1c(/C=C/c2ccc3c(c2)OCO3)ccc2ccccc21 .
106 % of control

Data provenance: PubChem BioAssay AID248
